Test system: HEK293T (UBE3A T485A transfected, BAR Wnt reporter)
Test: Wnt reporter firefly/Renilla luciferase ratio relative to plate median (fold (linear ratio)); higher = more Wnt/beta-catenin reporter activation
Settings: concentration: 1 uM; 24 h
The full ranking holds about 1,100 compounds; the median of “Wnt reporter firefly/Renilla luciferase ratio relative to plate median” is about 1.1, and the highest 2% start at about 1.6. Only a selection was taken, and the highest values are over-represented in it overall.
Output 1.0 for Wnt reporter firefly/Renilla luciferase ratio not less than 1; output 0.0 otherwise.

Example cases with answers are listed next.
                                 compound  label_value
0  COP(=S)(OC)Oc1ccc(SC)c(C)c1 [Fenthion]          1.0
1     CCC(=O)Nc1ccc(Cl)c(Cl)c1 [Propanil]          0.0
2       Nc1nc(N)nc(NC2CC2)n1 [Cyromazine]          0.0
3     Oc1ccc(Cl)cc1Cc1ccccc1 [Clorophene]          1.0

# evaluate next
[in] Given CC(C)(C)C(O)(CCc1ccc(Cl)cc1)Cn1cncn1 (stereo unspecified) [Tebuconazole] , state whether its Wnt reporter firefly/Renilla luciferase ratio is at least 1.
[out] 0.0
